growth by entry:
System: SW-620 colon
protocol-summary: NCI-60 one-dose screen, 48 h (100 = growth as untreated, 0 = no growth, -100 = all killed)
test-parameters: 10 µM
Method: Growth inhibition of the SW-620 human tumor cell line is measured as a screen for anti-cancer activity. Cells are grown in 96 well plates and exposed to the test compound for 48 hours. Compounds are tested at a single concentration, which is 10^-5 M for most compounds. The reported endpoint is percent growth (GI% or GIPRCNT), where numbers from 0 - 100% represent growth inhibition, and numbers from -100% - 0 represent cell death. For example, a value of 40 represents 60% growth inhibition. […]
This is part of a sample that, as a whole, favours compounds with a hit. Of some 83,000 tested, about 20% had one in any assay.

{"columns": ["compound", "growth, %"],
 "data": [
  ["CCOC(=O)C1=C(C)NC(=O)NC1c1cccs1 (stereo not drawn)", 105],
  ["Oc1ccccc1-c1nnco1", 98.3],
  ["CC1C(=O)c2ccccc2CC1C(=O)O (stereo not drawn)", 115],
  ["O=C(O)CCC(=O)OC(C1CO1)C(OC(=O)CCC(=O)O)C1CO1 (stereo not drawn)", 106],
  ["CNS(=O)(=O)c1ccc(Cl)c(Cl)c1", 104],
  ["CN(C)c1ccc2nc3ccc(=N)cc-3sc2c1", 23.5],
  ["O=c1[nH]n(-c2ccccc2)c(=O)cc1Cl", 102],
  ["O=C1c2ccccc2C(=O)N1OCc1ccccc1", 107],
  ["S=c1nn[nH]c2ccccc12", 113],
  ["OCc1ccc(-c2ccc(-c3ccc(CO)s3)o2)s1", 10.9],
  ["S=C(Nc1ccccc1)N1CCCCC1", 106],
  ["O=c1cc2oc3cc(O)c(O)cc3c(-c3ccccc3O)c-2cc1O", 89.3],
  ["CC1CCC2C(C)(C)C3CC12CC1OC13C (stereo not drawn)", 98.8],
  ["Cc1ccc(CCCC(=O)O)c(C)c1", 99.7],
  ["C=CCNC(=O)c1ccc(OC)cc1", 126],
  ["O=c1cc(-c2ccccc2)[nH]c2c1CCCC2", 24.2],
  ["COc1cc2c3c(n(C)c(=O)c2cc1OC)-c1cc2c(cc1C3=O)OCO2", 58.8],
  ["Nc1ncnc2[nH]ncc12", 17.5],
  ["COC(=O)c1ccccc1Br", 109],
  ["Cc1cc2nc(CO)[nH]c2cc1C", 103],
  ["COc1cc2nc3cc([N+](=O)[O-])ccc3c(Cl)c2cc1OC", 104],
  ["Cc1nc2ccccc2c2nnc(SCC(=O)N(Cc3ccccc3)c3ccccc3)n12", 93.5],
  ["c1ccc(Cc2ccccc2)cc1", 106],
  ["C=CCc1cc(C(C)=O)cc(OC)c1O", 95.9],
  ["C#C[C@H]1CCCCCC1O (stereo partly drawn)", 104],
  ["COC(=O)Nc1nc2ccc(C(=O)c3cccs3)cc2[nH]1", 24.8],
  ["CCOC(=O)C/C(C)=N\\O", 101],
  ["COc1ccccc1C1OC2=Nc3cc(C)c(C)cc3NC2C1=O (stereo not drawn)", 73.9]
]}

###

Test system: OVCAR-5 ovarian
protocol-summary: NCI-60 one-dose screen, 48 h (100 = growth as untreated, 0 = no growth, -100 = all killed)
test-parameters: 10 µM
About 83,000 compounds went through this panel and 20% of them were active in at least one assay; those are over-represented in the sample as a whole.

{"columns": ["structure-smiles", "growth, %"],
 "data": [
  ["Nc1ccc(N=Nc2ccc(S(=O)(=O)O)cc2)c2ccccc12", 106],
  ["N#C/C(=C\\c1cc(O)c(O)c(O)c1)C(N)=O", 98.2],
  ["CCc1nn(Cc2ccccc2)c2nc(C)c(CCc3ccccc3)c(Cl)c12", 95.1],
  ["CC(=O)c1ccc(N=C(C#N)C2=C(O)c3ccccc3C2=O)cc1", 119],
  ["O=c1[nH]cc(Cl)cc1O", 106],
  ["Oc1ccccc1-c1nnco1", 107],
  ["Nc1ccc(NC(=O)c2cccc(N)c2)cc1", 101]
]}

###

Tested on: A498 renal
protocol-summary: NCI-60 one-dose screen, 48 h (100 = growth as untreated, 0 = no growth, -100 = all killed)
test-parameters: 10 µM
Compounds without any hit were thinned out: in the full panel of roughly 83,000, 20% have a hit. Activity calls are given as the source filed them. The calls were made as follows: active = growth percent below 10; inactive = the rest.

{"columns": ["molecule", "growth"],
 "data": [
  ["CCOC(=O)C(=O)C=P(c1ccccc1)(c1ccccc1)c1ccccc1", "105% (inactive)"],
  ["Cc1ccc(S(=O)(=O)O)c(C)c1", "94.1% (inactive)"],
  ["Cc1cc(N)ccc1-c1ccc(N)cc1C", "97.1% (inactive)"],
  ["CCCCCC(C)(CC(=O)O)CC(=O)O", "113% (inactive)"],
  ["CSc1[nH]c(=O)ncc1F", "101% (inactive)"],
  ["CN(C)Cc1cc(C(C)(C)CC(C)(C)C)ccc1O", "116% (inactive)"],
  ["CC(=O)CC(=O)N(C)C", "102% (inactive)"],
  ["CC(C)CCCC(=O)O", "86.8% (inactive)"],
  ["COc1ccc(OC)c(/C=C2\\CCc3ccccc3C2=O)c1", "20.2% (inactive)"],
  ["CN(C)c1ccc2nc3ccc(=N)cc-3sc2c1", "55.8% (inactive)"],
  ["Cn1cnc2nc(Cl)nc(Cl)c21", "62.6% (inactive)"],
  ["C1CNC(C2=NCCN2)=N1", "108% (inactive)"],
  ["OC1OC(COC(c2ccccc2)(c2ccccc2)c2ccccc2)C(O)C(O)C1O (stereo not given)", "93.7% (inactive)"],
  ["COC(=O)C(O)c1ccccc1 (stereo not given)", "132% (inactive)"],
  ["CCCCCCCO", "105% (inactive)"],
  ["CC(=O)c1ccc(C)c(N)c1", "95.4% (inactive)"],
  ["O=C(c1ccc(O)cc1)c1ccc(O)cc1", "73.9% (inactive)"],
  ["OCc1cccc2ccccc12", "109% (inactive)"],
  ["Cc1c(O)cnc2nn(-c3ccccc3)c(=N)n12", "106% (inactive)"],
  ["O/N=C/c1ccc(O)cc1O", "85.9% (inactive)"],
  ["c1c(-c2cc(C3CC3)[nH]n2)n[nH]c1C1CC1", "97.6% (inactive)"],
  ["COc1ccc(C2(O)CCCCC2)cc1", "86.9% (inactive)"],
  ["Cc1cc(N2CCC(N3CCCC3)CC2)nc(/N=C(\\N)Nc2ccc(Cl)c(Cl)c2)n1", "45.7% (inactive)"],
  ["COCCOC(=O)c1ccc(C(C)C)cc1", "92.8% (inactive)"],
  ["CCCCNC(=O)C(=O)NCCCC", "114% (inactive)"],
  ["O=c1[nH]c(O)c(/C=C2/C=Nc3ccccc32)[nH]1", "86% (inactive)"],
  ["O=C(NCc1ccco1)Nc1c(Cl)cc(Cl)cc1Cl", "99.5% (inactive)"],
  ["COC(=O)Nc1nc2ccc(C(=O)c3cccs3)cc2[nH]1", "-1.63% (active)"],
  ["CC1(C)S(=O)(=O)OCCOS1(=O)=O", "101% (inactive)"],
  ["C/C(=C\\c1cc(Cl)ccc1OCC(=O)O)[N+](=O)[O-]", "144% (inactive)"],
  ["CCCCC1C(=O)N(c2ccccc2)N(c2ccccc2)C1=O", "125% (inactive)"],
  ["COc1cc2nn(-c3ccccc3N)nc2cc1OC", "82.3% (inactive)"],
  ["OCC1OC(OC2C(O)C(CO)OC2(CO)OC2OC(CO)C(O)C(O)C2O)C(O)C(O)C1O (stereo not given)", "94.6% (inactive)"],
  ["CCN1C(=O)/C(=C/C=C/N(C)c2ccccc2)SC1=S", "92.8% (inactive)"],
  ["NNc1ccccc1C(=O)O", "98.1% (inactive)"],
  ["CCCCCCCCO", "108% (inactive)"],
  ["O=[N+]([O-])c1ccc(CO)cc1", "110% (inactive)"],
  ["Cc1cccc(C(=O)N(C(C)C)C(C)C)c1", "71.9% (inactive)"],
  ["NC(=S)N/N=C/c1ccc(N)cc1", "91.2% (inactive)"],
  ["COCCCC/C(=N\\OCCN)c1ccc(C(F)(F)F)cc1", "89.1% (inactive)"],
  ["COc1ccc(C)cc1OC", "94.5% (inactive)"],
  ["COc1cc2c3cc1Oc1c(OC)c(OC)cc4c1C(Cc1ccc(O)c(c1)Oc1ccc(cc1)CC3N(C)CC2)N(C)CC4 (stereo not given)", "21.4% (inactive)"],
  ["C[C@@H](c1ccccc1)[C@@H](C(=O)O)c1ccccc1", "96.7% (inactive)"],
  ["CN(C)C(C)(C)CC(C)(C)C", "110% (inactive)"],
  ["CCCCNC1(C#N)CCN(Cc2ccccc2)CC1", "78.5% (inactive)"],
  ["COc1cc(-c2ccc(NC(=O)NC3CC3)c(OC)c2)ccc1NC(=O)NC1CC1", "59.3% (inactive)"],
  ["COCCOCCCl", "91.2% (inactive)"],
  ["C[C@]12CC[C@@H]3c4ccc(OCC(=O)O)cc4CC[C@H]3[C@@H]1CCC2=O", "78.1% (inactive)"],
  ["C=CCNc1nnc(C)s1", "123% (inactive)"],
  ["O=S(=O)(O)C(Nc1ccccc1)c1ccccc1 (stereo not given)", "81.3% (inactive)"],
  ["CC(=O)Nc1cccc(NC(C)=O)n1", "100% (inactive)"],
  ["Cc1nc2ccccc2c2nnc(SCC(=O)N(Cc3ccccc3)c3ccccc3)n12", "-16.6% (active)"],
  ["COc1cccc(Sc2ccc([N+](=O)[O-])c3no[n+]([O-])c23)c1", "98% (inactive)"],
  ["O=C(Nc1cc(-c2ccccc2)[nH]n1)c1ccc(Cl)cc1", "78.6% (inactive)"],
  ["CCn1c(=O)n(C)c2c(=O)n(C)c(=O)n(C)c21", "91.7% (inactive)"]
]}
